- target system: HTR2A-A242S-EGFP-CT (humanized 5-hydroxytryptamine 2A receptor) (Mus musculus, UniProt P35363, A242S)
- Sequence (P35363 1-452 A242S, other chains not shown): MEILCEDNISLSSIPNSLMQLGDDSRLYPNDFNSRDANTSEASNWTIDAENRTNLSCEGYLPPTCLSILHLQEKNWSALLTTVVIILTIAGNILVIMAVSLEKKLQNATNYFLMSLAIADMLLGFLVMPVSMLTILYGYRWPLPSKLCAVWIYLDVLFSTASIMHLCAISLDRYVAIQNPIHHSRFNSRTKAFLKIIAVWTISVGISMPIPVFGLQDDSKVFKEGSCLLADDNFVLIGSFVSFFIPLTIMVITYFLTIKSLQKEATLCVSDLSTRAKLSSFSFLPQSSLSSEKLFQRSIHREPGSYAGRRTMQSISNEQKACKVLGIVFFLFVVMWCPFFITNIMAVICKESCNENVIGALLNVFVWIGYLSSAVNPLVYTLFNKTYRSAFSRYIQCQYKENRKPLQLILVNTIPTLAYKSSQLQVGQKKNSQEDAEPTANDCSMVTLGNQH
- procedure text: radioligand saturation binding on cortical crude membranes
readout type: Kd (nM)
Write down the numeric answer in nM and omit the unit.

Requested field: Kd. Item: O=C(c1ccc(F)cc1)C1CCN(CCn2c(=O)[nH]c3ccccc3c2=O)CC1 [[3H]-ketanserin] 2.38
